Please go through the items and note down their IC50.
- System: Ileum
- procedure summary: Relaxation activity in guinea pig ileum assessed as relaxation of BaCl2-induced muscle contractions
- Assay type: functional, tissue-based
- conditions: Cavia porcellus
Report as a plain number; the unit µM is understood.

Exam item: Which IC50 value belongs to CC(C)=CC(=O)C/C(C)=C/CC/C(C)=C/CC/C(C)=C/CO [ELEGANOLONE] ?
Marked response: 45.7

Exam item: Entry under review: CC(=O)OC/C=C(\C)CC/C=C(\C)CC/C=C(\C)CC(=O)C=C(C)C [ELEGANOLONE ACETATE] . Reported IC50?
Marked response: 45.7
